Please go through the items and note down their TGI.
System: IGROV1 ovarian
Assay: NCI tumour cell line growth inhibition, 48 h

Example results:
* COCN1C(=O)[C@@H]2CCCN2C(=O)c2ccc(Cl)cc21 | > 100 µM
* COc1ccc(C(=O)O[C@@H]2CCN3CC[C@H](C)[C@H]23)cc1 | > 100 µM
* COc1ccc(/C=C2\C(=O)Nc3ccccc32)cc1OC | > 100 µM
* Fc1ccc(-c2nn3c(COc4ccccc4Cl)nnc3s2)cc1Oc1ccccc1 | > 100 µM
* C/C(=N/NC(=S)Nc1ccccc1C)c1ccccn1 | 12.1 µM
* OCC(O)COc1ccc(F)cc1 (configuration not stated) | > 100 µM
* Cc1cc2c(=O)cc(-c3ccc(C(=O)O)cc3)oc2c(C(N)=O)c1C | > 100 µM
* CCc1nc2c(n1CC)C(=O)c1ccccc1C2=O | > 100 µM
* CCC(CO)COC(=O)/C=C/C(=O)OCC(CC)CO (configuration not stated) | > 100 µM
* COc1cc(CN(C)N2C(=O)c3cccc4cc([N+](=O)[O-])cc(c34)C2=O)cc(OC)c1OC | > 100 µM

Please state, for each entry, its recorded TGI.
1. C=CC(Br)(CBr)CCC1OC1(C)C (configuration not stated)
2. Cc1cc2c(=O)cc(-c3ccc(Cl)c(Cl)c3)oc2c(C(=O)O)c1C
3. O=C(NCCNc1nccc(-c2c(-c3ccc(F)cc3)nc3sccn23)n1)Nc1cccc(C(F)(F)F)c1
4. COC(=O)CCC(=O)C(CC(=O)OC)C(=O)CCC(=O)NCCc1ccccc1 (configuration not stated)
5. Cc1cc2c(=O)c3ccc(Cl)cc3[nH]c2c(C(=O)O)c1C
6. COC1OC(CO)C(O)C(NC(=O)N(C)N=O)C1O (configuration not stated)
7. N#CC1(C#N)C2C=CC(C3CC=CC32)C1(C#N)C#N (configuration not stated)

Marked response:
1: 26.7 µM; 2: > 100 µM; 3: 20 µM; 4: > 100 µM; 5: > 100 µM; 6: > 100 µM; 7: 16.5 µM

Please state, for each entry, its recorded TGI.
1. COC(=O)C(=O)C(C(=O)C(=O)Nc1ccccc1C(N)=O)c1nc2ccc([N+](=O)[O-])cc2[nH]c1=O (configuration not stated)
2. Cc1cc2c(=O)cc(-c3ccc(Cl)cc3Cl)oc2c(C(=O)O)c1C
3. O=C(NC/C=C/CO)c1ccccc1

Marked response:
> 100 µM
> 100 µM
> 100 µM

Please state, for each entry, its recorded TGI.
1. Cc1ccc(C)c(N2C(=O)C(=O)C(c3nc4ccccc4s3)C(=O)C2=O)c1
2. COc1ccc(-c2nc(SCC(=O)N/N=C/c3ccc([N+](=O)[O-])cc3)[nH]c2-c2ccc(OC)cc2)cc1

Marked response:
1: > 100 µM; 2: 74.8 µM
